study target: AtHMG1-L558T (Arabidopsis thaliana, UniProt P14891, L558T)
Construct: AtHMG1 (Uniprot P14891, At1g76490, residues 121–592); His6 (N); TEV cleavage site (N)
Sequence (P14891 121-592 L558T): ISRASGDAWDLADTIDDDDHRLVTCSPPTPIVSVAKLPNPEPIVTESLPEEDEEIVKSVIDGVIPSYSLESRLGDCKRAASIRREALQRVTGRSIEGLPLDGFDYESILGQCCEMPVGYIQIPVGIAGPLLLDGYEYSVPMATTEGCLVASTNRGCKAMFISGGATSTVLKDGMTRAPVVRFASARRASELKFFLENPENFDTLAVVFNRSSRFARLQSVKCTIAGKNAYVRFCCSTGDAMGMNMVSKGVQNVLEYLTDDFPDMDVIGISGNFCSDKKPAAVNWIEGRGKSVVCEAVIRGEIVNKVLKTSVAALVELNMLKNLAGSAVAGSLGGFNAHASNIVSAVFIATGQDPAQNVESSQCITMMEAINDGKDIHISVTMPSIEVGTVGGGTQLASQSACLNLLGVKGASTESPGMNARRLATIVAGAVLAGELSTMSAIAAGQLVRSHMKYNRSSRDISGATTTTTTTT
assay explanation: biochemical
Protocol: AtHMG1 described above and human HMGR (HsHMGCR, Uniprot P04035, residues 441–888, cloned as above) were purified as above, and activity was determined by spectrophotometric measurement of the decrease in absorbance at 340 nm that occurs with NADPH oxidation in the presence of substrate HMG-CoA (Sigma-Aldrich). Reactions were performed with an assay buffer consisting of 150 mM sodium chloride, 5 mM dithiothreitol, 50 mM HEPES pH 7.4 and 2% DMSO. […]
outcome measure: IC50

>>> df
                                        smi                              study_target  reported_value
0  CC(C)c1nc(N(C)S(C)(=O)=O)nc(-c2ccc(F)cc2)c1/C=C/[C@@H](O)C[C@@H](O)CC(=O)O  AtHMG1-L558T (Arabidopsis thaliana, UniProt P14891, L558T)          > 1 µM

This collection of values is drawn from paper PMC9500038.
